Test: Acute toxicity, single intravenous administration, 14 days survival
Settings: mouse, in vivo, ddy mice, single i.v., Behrens-Karber method
quantityMeasured: LD50 at 336 h

Query CC1C(O)C(=O)C2(C)C(CO)=CCCC2C1(C)CC(O)C1(C(=O)C=O)CO1 (stereo not shown) yields LD50 at 336 h of ≥ 50 mg/kg

Values from patent US5151352A
